System: HeLa cells transfected with GR-GFP
test.summary: GR-GFP translocation assay (cytosolic access of Dex-labeled molecules)
Assay type: cell-based
condition: 1 μM, 30 min, HeLa cells expressing GR-GFP
Where no end group is shown, it is not given here.

| substance | measured.on | translocation ratio (TR) |
| --- | --- | --- |
| K^DexGRKKRRQRRRPPQY-NH2 (K(dexamethasone)GRKKRRQRRRPPQY-NH2) [TatDex] | HeLa cells transfected with GR-GFP | 2.85 |
| K^DexWYSCNVCGKAFVLSAHLNQHLAVHTQAT-NH2 (K(dexamethasone)WYSCNVCGKAFVLSAHLNQHLAVHTQAT-NH2; cysteine pairing not given here) [ZFDex] | HeLa cells transfected with GR-GFP | 1.4 |
| K^DexGPSQPTYPGDDAPVEDLIRFYNDLQQYLNVVTRHRY-NH2 (K(dexamethasone)GPSQPTYPGDDAPVEDLIRFYNDLQQYLNVVTRHRY-NH2) [aPPDex] | HeLa cells transfected with GR-GFP | 1.41 |
| K^DexWYSCNVCGKAFVLSRHLNRHLRVHRRAT-NH2 (K(dexamethasone)WYSCNVCGKAFVLSRHLNRHLRVHRRAT-NH2; cysteine pairing not given here) [ZF5.3Dex] | HeLa cells transfected with GR-GFP | 2.4 |
